B1: Azoarcus group I ribozyme (parent)
chain: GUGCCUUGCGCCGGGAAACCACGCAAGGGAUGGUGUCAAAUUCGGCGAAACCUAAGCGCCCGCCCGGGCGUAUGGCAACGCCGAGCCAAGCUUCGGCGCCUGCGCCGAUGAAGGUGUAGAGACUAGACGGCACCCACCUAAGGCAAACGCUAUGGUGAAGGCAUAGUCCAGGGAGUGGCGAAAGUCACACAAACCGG

Variants of: B1
protocol.notes: reverse-splicing fitness (ratio to wild type); higher = more active; in vitro selection; Mg2+ level not given
Parameter class (string): assigned from measured reverse-splicing fitness. Ranges: band 1: < 0.005; band 2: ≥ 0.005 and < 0.01; band 3: ≥ 0.01

Q: # classify by reverse-splicing fitness band: C82A A111U A120G C150A C169U U176C
A: band 3

Q: Then this variant: C82G A120U C150A C169A U176G
A: band 1

Q: Now the same for C82G A120U A145U C150G C169A U176G
A: band 1

Q: And what about the variant C82G A111U A120U C150G U176G ?
A: band 1

Q: Next entry: C82U A111G A145U C150A C169A U176G
A: band 2

Q: Next: C82A A111U A120G A145G C150G C169G
A: band 2

Q: Try this variant next: A120U A145C C169A
A: band 3

Q: // repeat for C82U A111C A145U C150G U176C and report
A: band 3

Q: Now consider C82A A111G A120G C150U C169G U176C .
A: band 3

Q: Can you check C82A A111C A120C A145C C150A U176A next?
A: band 3
